We begin with a simple list: items and their reported Percent Control.
System: SIK2
Details: Compound Concentration (nM):1000;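 further: KINOMEscan scanMAX binding as percent activity remaining versus control; lower means stronger binding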
observedProperty: Percent Control (%)

compound=CCc1ccc(Oc2nccc(-c3c(-c4ccc(F)cc4)ncn3C3CCNCC3)n2)cc1 observedproperty="Percent Control" observedvalue=66
compound="COc1cccc(-n2ncc3c(N/N=C/c4ccncc4)ncnc32)c1 [GW784752X]" observedproperty="Percent Control" observedvalue=75
compound="CCS(=O)(=O)c1ccc(OC)c(Nc2ncc(-c3cccc(F)c3)o2)c1 [GW621970X]" observedproperty="Percent Control" observedvalue=63
compound="Cl.c1ccc(Cc2nc3ccc(Nc4ncnc5ccccc45)cc3[nH]2)cc1 [GR269666A]" observedproperty="Percent Control" observedvalue=82
compound="COC(=O)Nc1nc2ccc(Oc3ccc(NC(=O)Nc4cc(C(F)(F)F)ccc4F)cc3)cc2s1.Cl [GW693917A]" observedproperty="Percent Control" observedvalue=68
compound="CC1=C(C(=O)Nc2ccc3[nH]ncc3c2)C(c2ccc3ccccc3c2)CC(=O)N1 (centres unmarked) [GSK270822A]" observedproperty="Percent Control" observedvalue=86
compound="Cl.O=C(O[C@H]1CN[C@H](C#Cc2cc3ncnc(Nc4ccc5c(cnn5Cc5ccccc5)c4)c3s2)C1)N1CCOCC1 [GSK200398A]" observedproperty="Percent Control" observedvalue=69
compound="NS(=O)(=O)c1ccc(N/N=C2\\C(=O)Nc3ccc(C(=O)NCCc4c[nH]cn4)cc32)cc1 [GW300660X]" observedproperty="Percent Control" observedvalue=100

---

Test system: FGFR3
Settings: Compound Concentration (nM):1000
observedProperty: Percent Control (%)

molecule=NS(=O)(=O)c1ccc(N/N=C2\C(=O)Nc3ccc(-c4cnco4)cc32)cc1 observedproperty="Percent Control" observedvalue=100
molecule="CN(C)c1cc2c(Nc3ccc4c(cnn4Cc4ccccc4)c3)ncnc2cn1 [GW282974X]" observedproperty="Percent Control" observedvalue=100
molecule="Cl.O=C(O[C@H]1CN[C@H](C#Cc2cc3ncnc(Nc4ccc5c(cnn5Cc5ccccc5)c4)c3s2)C1)N1CCOCC1 [GSK200398A]" observedproperty="Percent Control" observedvalue=100
molecule="COc1ccc(COc2ccc(Cc3cnc(N)nc3N)cc2OC)cc1 [GW632580X]" observedproperty="Percent Control" observedvalue=95
molecule="COc1cc(/C=N/Nc2ncnc3[nH]ncc23)ccc1O [GW578748X]" observedproperty="Percent Control" observedvalue=100
molecule="COC(=O)Nc1nc2ccc(Oc3ccc(NC(=O)Nc4cc(C(F)(F)F)ccc4F)cc3)cc2s1.Cl [GW693917A]" observedproperty="Percent Control" observedvalue=70
molecule="CCS(=O)(=O)c1ccc(OC)c(Nc2ncc(-c3cccc(F)c3)o2)c1 [GW621970X]" observedproperty="Percent Control" observedvalue=11
molecule=CCn1c(-c2nonc2N)nc2c(C#CC(C)(C)O)nc(OCCNC)cc21.Cl observedproperty="Percent Control" observedvalue=100
molecule=COc1cc(C)c(N(C)C(=O)CN(C)C)cc1Nc1nc(Nc2cccc(F)c2C(N)=O)c2cc[nH]c2n1 observedproperty="Percent Control" observedvalue=78

---

System: DYRK2
Details: Compound Concentration (nM):1000
We use 80% as the dividing line for Percent Control: on or above the line is satisfied, below is not satisfied.

compound="COc1cc(N2CCN(C(C)C)CC2)ccc1Nc1nc(Nc2ccc(F)cc2C(=O)NC[C@@H](O)CO)c2cc[nH]c2n1 [GSK1392956A]" assayedsystem=DYRK2 qualitativelabel="not satisfied"
compound="NS(=O)(=O)c1ccc(Nc2ncc(-c3ccccc3)o2)cc1 [GW572399X]" assayedsystem=DYRK2 qualitativelabel="not satisfied"
compound="Nc1ncnc2occ(-c3ccc(NC(=O)Nc4cc(C(F)(F)F)ccc4F)cc3)c12 [GW770249X]" assayedsystem=DYRK2 qualitativelabel=satisfied
compound="COc1ccccc1-c1cc(/C=C2\\C(=O)Nc3ncc(Br)cc32)cc(Br)c1O [GW442130X]" assayedsystem=DYRK2 qualitativelabel=satisfied
compound="Cl.O=S1CCN(Cc2ccc(-c3ccc4ncnc(Nc5ccc(OCc6ccccc6)c(F)c5)c4c3)o2)CC1 [GW576924A]" assayedsystem=DYRK2 qualitativelabel=satisfied
compound="CCS(=O)(=O)c1ccc(OC)c(Nc2ncc(-c3cccc(OC)c3)o2)c1 [GW580509X]" assayedsystem=DYRK2 qualitativelabel="not satisfied"
compound="NS(=O)(=O)c1ccc(N/N=C2\\C(=O)Nc3ccc(C(=O)NCCc4c[nH]cn4)cc32)cc1 [GW300660X]" assayedsystem=DYRK2 qualitativelabel="not satisfied"
compound="Cc1cc(O)cc(C)c1/C=C/c1cncc(C(N)=O)c1 [GW435821X]" assayedsystem=DYRK2 qualitativelabel="not satisfied"
